Parameter EC50: see the listing below.
Tested on: HCV 3a RLuc cells (NS5A chimeric genotype 1b Con1 replicon with consensus genotype 3a NS5A gene)
Protocol: microbe, parasite or virus in culture
Format: cell-based
Experimental setup: read-out: 3a; genotype 3a NS5A chimeric 1b Con1 replicon
Method: Evaluation of cell-based anti-HCV activity: Antiviral potency (EC50) was determined using a Renilla luciferase (RLuc)-based HCV replicon reporter assay. […] 72 hours later, cells were lysed and Renilla luciferase activity quantified as recommended by the manufacturer (Promega-Madison, Wis.). […]

Recorded results for 6 molecules are shown here.
1) COC(=O)N[C@H](C(=O)N1CCC[C@H]1c1ncc(-c2ccc(-c3ccc(-c4ccc(-c5cnc([C@@H]6CCCN6C(=O)[C@H](NC(=O)OC)c6ccccc6)[nH]5)cc4)cc3)cc2)[nH]1)C(C)C [Example 193]	0.001 to 0.99 nM
2) COC(=O)N[C@H](C(=O)N1CCC[C@H]1c1ncc(-c2ccc3cc(-c4ccc(-c5cnc([C@@H]6C[C@@H](F)CN6C(=O)[C@H](NC(=O)OC)c6ccccc6)[nH]5)cc4)ccc3c2)[nH]1)C(C)C [Example 140]	0.001 to 0.99 nM
3) COC(=O)N[C@H](C(=O)N1CCC[C@H]1c1ncc(-c2ccc3cc(-c4ccc5c(c4)CCc4nc([C@@H]6CCCN6C(=O)[C@@H](NC(=O)OC)C6CCOCC6)[nH]c4-5)ccc3c2)[nH]1)C(C)C [Example 222]	0.001 to 0.99 nM
4) COC(=O)N[C@H](C(=O)N1CCC[C@H]1c1ncc(-c2ccc3cc(-c4ccc(-c5cnc([C@@H]6CCCN6C(=O)[C@H](NC(=O)OC)c6ccccc6F)[nH]5)cc4)ccc3c2)[nH]1)C(C)C [Example 149]	0.001 to 0.99 nM
5) COC(=O)N[C@H](C(=O)N1CCC[C@H]1c1ncc(-c2ccc3cc(-c4ccc(-c5cnc([C@@H]6CCCN6C(=O)[C@H](NC(=O)OC)c6ccccc6F)[nH]5)cc4)ccc3c2)[nH]1)C(C)C [Example 148]	1 to 4.99 nM
6) COC(=O)N[C@H](C(=O)N1CCC[C@H]1c1ncc(-c2ccc3cc(-c4ccc5c(c4)CCc4nc([C@@H]6CCCN6C(=O)[C@@H](NC(=O)OC)C6CCOCC6)[nH]c4-5)ccc3c2)[nH]1)C(C)C [Example 198]	1 to 4.99 nM

Turning now to a further record.
Query: Param item = COC(=O)N[C@H](C(=O)N1CCC[C@H]1c1nc2c([nH]1)-c1ccc(-c3ccc4cc(-c5cnc([C@@H]6CCCN6C(=O)[C@H](NC(=O)OC)c6ccccc6)[nH]5)ccc4c3)cc1CC2)C1CCOCC1 [Example 279] ; retrieve measured EC50.
Reply: 0.001 to 0.99 nM

###

Measured EC50 by item
Test system: HCV 2a JFH-1 Rluc cells (dicistronic genotype 2a JFH-1 replicon, RLuc reporter)
Protocol: microbe, parasite or virus in culture
Format: cell-based
Experimental setup: Hepatitis C virus, 72 h, Table 2; genotype 2a JFH-1 replicon, 72 hours; read-out: 2a JFH

1) COC(=O)N[C@H](C(=O)N1CCC[C@H]1c1nc2ccc3cc(-c4ccc(-c5cnc([C@@H]6[C@H]7CC[C@H](C7)N6C(=O)[C@@H](NC(=O)OC)[C@@H](C)OC)[nH]5)c(F)c4)ccc3c2[nH]1)C(C)C	0.001 to 0.999 nM

Query: Would you mind telling me what EC50 value was observed for COC(=O)N[C@H](C(=O)N1[C@@H]2CC[C@@H](C2)[C@H]1c1ncc(-c2ccc3c(c2)CCc2cc(-c4cnc([C@@H]5CCCN5C(=O)[C@@H](NC(=O)OC)C(C)OC)[nH]4)ccc2-3)[nH]1)C(C)C (some centres unmarked) ?
Reply: 0.001 to 0.999 nM

Query: Consider the molecule shown here: COC(=O)N[C@H](C(=O)N1CCC[C@H]1c1nc2ccc3cc(-c4ccc5c(ccc6nc([C@@H]7[C@H]8CC[C@H](C8)N7C(=O)[C@@H](NC(=O)OC)C(C)C)[nH]c65)c4)ccc3c2[nH]1)C(C)C What is its recorded EC50?
Reply: 0.001 to 0.999 nM

Query: State the recorded EC50 for this entry: COC(=O)N[C@H](C(=O)N1CCC[C@H]1c1ncc(-c2ccc3cc(-c4ccc(-c5cnc([C@@H]6[C@H]7CC[C@H](C7)N6C(=O)[C@H](NC(=O)OC)c6ccccc6)[nH]5)cc4)ccc3c2)[nH]1)C1CCOCC1
Reply: 0.001 to 0.999 nM

Query: # get_value(readout='EC50', item= COC(=O)N[C@H](C(=O)N1CC2(C[C@H]1c1ncc(-c3ccc(-c4ccc5cc(-c6cnc([C@@H]7CCCN7C(=O)[C@H](NC(=O)OC)c7ccccc7)[nH]6)ccc5c4)cc3)[nH]1)OCCO2)C1CCOCC1 )
Reply: 0.001 to 0.999 nM

Query: Which EC50 is listed for COC(=O)NC(C(=O)N1CC2(C[C@H]1c1nc3c([nH]1)-c1ccc(-c4ccc5c(ccc6nc([C@@H]7CCCN7C(=O)[C@@H](NC(=O)OC)C(C)C)[nH]c65)c4)cc1CC3)OCCO2)C1CCOCC1 (some centres unmarked) ?
Reply: 0.001 to 0.999 nM

Query: Recorded EC50 of COC(=O)N[C@H](C(=O)N1CCC[C@H]1c1ncc(-c2ccc3c(c2)CCc2cc(-c4cnc([C@@H]5[C@H]6CC[C@H](C6)N5C(=O)[C@@H](NC(=O)OC)[C@@H](C)OC)[nH]4)ccc2-3)[nH]1)C(C)C , please.
Reply: 0.001 to 0.999 nM

Query: Name the reported EC50 value associated with the molecule COC(=O)N[C@H](C(=O)N1CCC[C@H]1c1ncc(-c2ccc(-c3ccc4c(ccc5nc([C@@H]6CC7(CN6C(=O)[C@@H](NC(=O)OC)[C@@H](C)OC)OCCO7)[nH]c54)c3)cc2)[nH]1)C(C)C
Reply: 0.001 to 0.999 nM

Query: I'd like to know its EC50. The molecule in question is COC(=O)N[C@H](C(=O)N1CC2(C[C@H]1c1ncc(-c3ccc4cc(-c5ccc(-c6cnc([C@@H]7CCCN7C(=O)[C@H](NC(=O)OC)c7ccccc7)[nH]6)cc5)ccc4c3)[nH]1)OCCO2)C1CCOCC1
Reply: 0.001 to 0.999 nM

Query: May I ask what EC50 has been recorded for COC(=O)N[C@H](C(=O)N1CCC[C@H]1c1ncc(-c2ccc3c(c2)C(F)(F)c2cc(-c4ccc5nc([C@@H]6[C@H]7CC[C@H](C7)N6C(=O)[C@H](NC(=O)OC)c6ccccc6)[nH]c5c4)ccc2-3)[nH]1)C1CCOCC1 ?
Reply: 0.001 to 0.999 nM

Query: Given the entry COC(=O)N[C@H](C(=O)N1CCC[C@H]1c1nc2ccc3cc(-c4ccc5c(c4)CCc4nc([C@@H]6[C@H]7CC[C@H](C7)N6C(=O)[C@@H](NC(=O)OC)[C@@H](C)OC)[nH]c4-5)ccc3c2[nH]1)C(C)C , report its measured EC50.
Reply: 0.001 to 0.999 nM
